Reference source: the Human Domainome abundance scans (Beltran et al. 2025)

B1: Max-interacting protein 1, residues 70 to 120; numbered along this chain, P50539 (parent)
chain: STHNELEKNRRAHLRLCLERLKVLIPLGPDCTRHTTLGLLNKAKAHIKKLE

- Variants of: B1
- procedureSummary: abundance fitness (aPCA) (normalised: wild type 0, dead -1); higher = more abundant; growth selection in yeast, the domain comes from the species named
- settings: Homo sapiens
# abundance fitness >= -0.4 gives Met, anything below gives Not met

[
  {
    "sequenceChange": "R15H",
    "qualitativeLabel": "Not met"
  },
  {
    "sequenceChange": "K48P",
    "qualitativeLabel": "Not met"
  },
  {
    "sequenceChange": "R33P",
    "qualitativeLabel": "Met"
  },
  {
    "sequenceChange": "V23N",
    "qualitativeLabel": "Met"
  },
  {
    "sequenceChange": "L50D",
    "qualitativeLabel": "Not met"
  },
  {
    "sequenceChange": "N4I",
    "qualitativeLabel": "Met"
  },
  {
    "sequenceChange": "P26W",
    "qualitativeLabel": "Not met"
  },
  {
    "sequenceChange": "T36A",
    "qualitativeLabel": "Met"
  },
  {
    "sequenceChange": "C31G",
    "qualitativeLabel": "Met"
  },
  {
    "sequenceChange": "A12C",
    "qualitativeLabel": "Not met"
  },
  {
    "sequenceChange": "H46F",
    "qualitativeLabel": "Not met"
  },
  {
    "sequenceChange": "L18R",
    "qualitativeLabel": "Not met"
  },
  {
    "sequenceChange": "C17T",
    "qualitativeLabel": "Not met"
  },
  {
    "sequenceChange": "E7K",
    "qualitativeLabel": "Met"
  },
  {
    "sequenceChange": "T36V",
    "qualitativeLabel": "Met"
  },
  {
    "sequenceChange": "A45Q",
    "qualitativeLabel": "Met"
  },
  {
    "sequenceChange": "T32H",
    "qualitativeLabel": "Met"
  },
  {
    "sequenceChange": "L40W",
    "qualitativeLabel": "Met"
  },
  {
    "sequenceChange": "L39N",
    "qualitativeLabel": "Not met"
  },
  {
    "sequenceChange": "C31V",
    "qualitativeLabel": "Met"
  },
  {
    "sequenceChange": "L14R",
    "qualitativeLabel": "Not met"
  },
  {
    "sequenceChange": "I47D",
    "qualitativeLabel": "Not met"
  }
]
